protein stability index values by entry
B1: CDC25B (parent)
chain: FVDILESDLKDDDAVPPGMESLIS

variants of: B1; assay: protein stability index of a GFP-peptide fusion (GPS, HEK-293T) (PSI 1-6); higher = more stable; details: c terminus: a fixed tail appended;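 further: lentivirally expressed fusions sorted by FACS into six bins by GFP to DsRed ratio, PSI derived from sequencing read proportions per bin multiplied by bin number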

Consider the worked cases shown below.
S7I    2.3
V15T    2.92
I23G    3.03
L22E    3.92
P16C    2.68

Item `S21L` has what recorded protein stability index?
3.43

Item `S24L` has what recorded protein stability index?
2.18

Item `L9Y` has what recorded protein stability index?
3.18

Item `G18C` has what recorded protein stability index?
2.6

Item `V2Q` has what recorded protein stability index?
3.98

Item `P17V` has what recorded protein stability index?
2.27

Item `D13T` has what recorded protein stability index?
2.75

Item `D12P` has what recorded protein stability index?
2.66

Item `G18V` has what recorded protein stability index?
2.87

Item `D3W` has what recorded protein stability index?
1.91

Item `V15K` has what recorded protein stability index?
2.96

Item `V15Q` has what recorded protein stability index?
2.87

Item `S24M` has what recorded protein stability index?
2.52

Item `S7V` has what recorded protein stability index?
2.17

Where do these numbers come from? They come from the supplement of paper PMC10567573.
